Where these numbers come from: paper PMC12386606

system: HBMEC cells; assay: Blood–brain barrier transport study in HBMEC Transwell monolayer; details: RootExt 20 µg mL^−1 apical; 2 h; n.q. = not quantified in the basolateral compartment
OBSERVABLE: RootExt Te (%) ± SD 2 h

[
  {
    "MOLECULE": "CC(C)[C@@H]1CC[C@@]2(C)[C@H](O)CC[C@](C)(O)[C@H]2[C@@H]1O[C@@H]1O[C@H](CO)[C@@H](O)[C@H](O)[C@H]1O [Ophiopogonoside A]",
    "OBSERVABLE": "RootExt Te (%) ± SD 2 h",
    "RESULT_VALUE": "n.q."
  },
  {
    "MOLECULE": "COc1ccc(-c2cc(=O)c3c(OC)c(OC)c(OC)c(OC)c3o2)cc1OC",
    "OBSERVABLE": "RootExt Te (%) ± SD 2 h",
    "RESULT_VALUE": "n.q."
  },
  {
    "MOLECULE": "Oc1ccc(O)c(O)c1",
    "OBSERVABLE": "RootExt Te (%) ± SD 2 h",
    "RESULT_VALUE": "n.q."
  },
  {
    "MOLECULE": "COc1cc2ccc(=O)oc2c(OC)c1O",
    "OBSERVABLE": "RootExt Te (%) ± SD 2 h",
    "RESULT_VALUE": "n.q."
  },
  {
    "MOLECULE": "C=C(C)[C@@H]1CC[C@@]2(C)CCC(=O)C(C)=C2C1",
    "OBSERVABLE": "RootExt Te (%) ± SD 2 h",
    "RESULT_VALUE": "15.4 ± 2.6%"
  }
]

Record RootExt Te (%) ± SD 2 h for all entries; do not skip any.
1. CC1=C[C@H]2[C@@H](CC1=O)[C@H](C)C[C@H](O)[C@H]2C(C)C [8-hydroxyageraphorone]
2. COc1ccc([C@@H]2CC(=O)c3c(O)cc(O[C@@H]4O[C@H](CO[C@@H]5O[C@@H](C)[C@H](O)[C@@H](O)[C@H]5O)[C@@H](O)[C@H](O)[C@H]4O)cc3O2)cc1O
3. COc1ccc(O)c(C=O)c1 [2-hydroxy-5-methoxybenzaldehyde]

Outgoing:
1: n.q.; 2: n.q.; 3: 31.8 ± 8.0%

Incoming: Quick one: RootExt Te (%) ± SD 2 h of COc1cc2ccc(=O)oc2cc1O [7-hydroxy-6-methoxycoumarin] ?
Outgoing: n.q.

###

tested on: HBMEC cells; test: Blood–brain barrier transport study in HBMEC Transwell monolayer; conditions: RootExt 20 µg mL^−1 apical; 24 h; n.q. = not quantified in the basolateral compartment
OBSERVABLE: RootExt Te (%) ± SD 24 h

Here is how some molecules turned out for RootExt Te (%) ± SD 24 h.
[
  {
    "MOLECULE": "COc1cc2ccc(=O)oc2cc1O [7-hydroxy-6-methoxycoumarin]",
    "RootExt Te (%) ± SD 24 h": "n.q."
  },
  {
    "MOLECULE": "O=C(O)C=Cc1cc(O)ccc1O [2,5-dihydroxycinnamic acid]",
    "RootExt Te (%) ± SD 24 h": "n.q."
  },
  {
    "MOLECULE": "CC(C)[C@@H]1CC[C@@]2(C)[C@H](O)CC[C@](C)(O)[C@H]2[C@@H]1O[C@@H]1O[C@H](CO)[C@@H](O)[C@H](O)[C@H]1O [Ophiopogonoside A]",
    "RootExt Te (%) ± SD 24 h": "66.0 ± 3.2%"
  },
  {
    "MOLECULE": "CC1=C[C@H]2[C@@H](CC1=O)[C@H](C)C[C@H](O)[C@H]2C(C)C [8-hydroxyageraphorone]",
    "RootExt Te (%) ± SD 24 h": "124.7 ± 16.9%"
  },
  {
    "MOLECULE": "COc1ccc(O)c(C=O)c1 [2-hydroxy-5-methoxybenzaldehyde]",
    "RootExt Te (%) ± SD 24 h": "164.8 ± 21.0%"
  }
]

I would be grateful if you could provide RootExt Te (%) ± SD 24 h for each of the following entries.
1. COc1cc(/C=C/C(=O)O)ccc1O
2. C=C1CC[C@H]2O[C@]2(C)CC[C@@H]2[C@@H]1CC2(C)C [(–)-caryophyllene oxide]
3. Oc1ccc(O)c(O)c1

Outgoing:
n.q.
n.q.
n.q.
